# system-tested: P-gp (Homo sapiens, UniProt P08183)
# Sequence (P08183 whole entry): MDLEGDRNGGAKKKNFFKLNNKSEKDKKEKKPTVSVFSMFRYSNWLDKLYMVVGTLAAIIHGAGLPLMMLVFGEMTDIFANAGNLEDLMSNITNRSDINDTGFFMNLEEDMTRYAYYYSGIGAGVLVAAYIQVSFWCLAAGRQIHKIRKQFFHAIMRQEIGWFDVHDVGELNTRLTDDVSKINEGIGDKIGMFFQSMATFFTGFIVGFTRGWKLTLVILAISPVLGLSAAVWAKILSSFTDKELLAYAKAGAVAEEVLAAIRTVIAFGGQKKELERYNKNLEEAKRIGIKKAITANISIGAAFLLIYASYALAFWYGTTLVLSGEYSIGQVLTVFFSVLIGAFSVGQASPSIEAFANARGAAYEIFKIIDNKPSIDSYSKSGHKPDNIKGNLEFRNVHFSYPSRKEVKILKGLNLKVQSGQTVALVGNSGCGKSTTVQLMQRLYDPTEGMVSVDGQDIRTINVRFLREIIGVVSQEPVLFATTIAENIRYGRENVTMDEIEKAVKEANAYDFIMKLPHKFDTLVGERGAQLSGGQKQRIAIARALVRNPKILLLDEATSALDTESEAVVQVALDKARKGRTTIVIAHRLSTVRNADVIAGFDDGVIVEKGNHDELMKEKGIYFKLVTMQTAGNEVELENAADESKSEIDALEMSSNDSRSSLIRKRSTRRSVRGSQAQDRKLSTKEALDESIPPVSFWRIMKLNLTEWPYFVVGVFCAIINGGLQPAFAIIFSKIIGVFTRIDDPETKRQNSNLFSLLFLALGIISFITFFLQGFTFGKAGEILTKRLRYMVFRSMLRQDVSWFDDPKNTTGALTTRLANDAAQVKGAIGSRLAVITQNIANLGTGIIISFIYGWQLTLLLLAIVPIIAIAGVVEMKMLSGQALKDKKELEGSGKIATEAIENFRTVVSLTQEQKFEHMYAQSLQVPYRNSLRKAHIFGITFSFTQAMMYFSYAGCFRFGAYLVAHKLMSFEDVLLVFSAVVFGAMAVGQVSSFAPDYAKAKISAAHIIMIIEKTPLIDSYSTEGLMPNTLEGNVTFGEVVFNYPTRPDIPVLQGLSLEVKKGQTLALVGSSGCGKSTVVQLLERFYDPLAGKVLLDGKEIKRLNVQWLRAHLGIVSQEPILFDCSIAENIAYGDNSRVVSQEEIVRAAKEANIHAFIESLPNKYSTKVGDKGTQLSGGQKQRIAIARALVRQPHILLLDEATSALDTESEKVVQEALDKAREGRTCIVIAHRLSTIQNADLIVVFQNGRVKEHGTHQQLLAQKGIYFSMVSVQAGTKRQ
# measurement-setup: 1 h
observable: minimum effective concentration (MEC), Dox accumulation (µM)

# sample-smiles, unit, experimental-value
records = [
    ("CC(=O)c1ccc(Nc2nccc(-c3ccc4ccccc4c3)n2)cc1", "µM", 10),
    ("COc1ccc2[nH]c(=O)c(CNc3ccc(Nc4nccc(-c5ccc(Cl)cc5)n4)cc3)cc2c1", "µM", 2.5),
    ("COc1cc2cc(CN3CCN(c4nccc(-c5ccc(Cl)cc5)n4)CC3)c(=O)[nH]c2cc1OC", "µM", 0.62),
    ("COc1ccc2[nH]c(=O)c(CNc3ccc(Nc4nccc(-c5ccc6ccccc6c5)n4)cc3)cc2c1", "µM", 0.62),
]

###

Reported values of FIR Lucena 1 for individual entries
# system-tested: P-gp (Homo sapiens)
# measurement-setup: 1 h, 20 µM

# sample-smiles, FIR Lucena 1
data = [
    ("COc1ccc2[nH]c(=O)c(CNc3ccc(Nc4nccc(-c5ccc(Cl)cc5)n4)cc3)cc2c1", 1.29),
    ("O=c1[nH]c2ccccc2cc1CN1CCN(c2nccc(-c3ccc(Cl)cc3)n2)CC1", 1.40),
    ("O=c1[nH]c2ccccc2cc1CN1CCN(c2nccc(-c3ccc4ccccc4c3)n2)CC1", 1.33),
    ("COc1ccc2[nH]c(=O)c(CNc3ccc(Nc4nccc(-c5ccc6ccccc6c5)n4)cc3)cc2c1", 1.36),
    ("O=c1[nH]c2ccccc2cc1CNc1ccc(Nc2nccc(-c3ccc(Cl)cc3)n2)cc1", 1.21),
    ("COc1ccc2[nH]c(=O)c(CN3CCN(c4nccc(-c5ccc6ccccc6c5)n4)CC3)cc2c1", 1.43),
    ("COc1ccc2[nH]c(=O)c(CN3CCN(c4nccc(-c5ccc(Cl)cc5)n4)CC3)cc2c1", 1.55),
    ("CC(=O)c1ccc(Nc2nccc(-c3ccc4ccccc4c3)n2)cc1", 1.70),
    ("O=c1[nH]c2ccccc2cc1CNc1ccc(Nc2nccc(-c3ccc4ccccc4c3)n2)cc1", 1.24),
    ("NCCN1CCN(c2nccc(-c3ccc(Cl)cc3)n2)CC1", 1.72),
]

###

# system-tested: P-gp (Homo sapiens)
# measurement-setup: 1 h, 5 µM
observable: FIR Lucena 1

# compound, system-tested, experimental-value
measured = [
    ("CC(=O)c1ccc(Nc2nccc(-c3ccc4ccccc4c3)n2)cc1 [Compound 3]", "P-gp (Homo sapiens)", 1.06),
    ("COc1cc2cc(COc3nccc(-c4ccc(Cl)cc4)n3)c(=O)[nH]c2cc1OC [Compound 11]", "P-gp (Homo sapiens)", 1.38),
    ("COc1cc2cc(CN3CCN(c4nccc(-c5ccc6ccccc6c5)n4)CC3)c(=O)[nH]c2cc1OC [Compound 7c]", "P-gp (Homo sapiens)", 1.27),
    ("COc1cc2cc(CNc3ccc(Nc4nccc(-c5ccc6ccccc6c5)n4)cc3)c(=O)[nH]c2cc1OC [Compound 5c]", "P-gp (Homo sapiens)", 1.23),
    ("c1ccc2cc(-c3ccnc(N4CCNCC4)n3)ccc2c1 [Compound 7]", "P-gp (Homo sapiens)", 1.19),
    ("COc1ccc2[nH]c(=O)c(CN3CCN(c4nccc(-c5ccc(Cl)cc5)n4)CC3)cc2c1 [Compound 6b]", "P-gp (Homo sapiens)", 1.32),
]

Reference source: paper PMC8376931
